- targetOrTestSystem: HDAC7 (Homo sapiens, UniProt Q8WUI4)
- Construct: Recombinant, full-length HDAC protein (BPS Biosciences) was incubated with fluorophore conjugated substrate
- Sequence (Q8WUI4 1-952): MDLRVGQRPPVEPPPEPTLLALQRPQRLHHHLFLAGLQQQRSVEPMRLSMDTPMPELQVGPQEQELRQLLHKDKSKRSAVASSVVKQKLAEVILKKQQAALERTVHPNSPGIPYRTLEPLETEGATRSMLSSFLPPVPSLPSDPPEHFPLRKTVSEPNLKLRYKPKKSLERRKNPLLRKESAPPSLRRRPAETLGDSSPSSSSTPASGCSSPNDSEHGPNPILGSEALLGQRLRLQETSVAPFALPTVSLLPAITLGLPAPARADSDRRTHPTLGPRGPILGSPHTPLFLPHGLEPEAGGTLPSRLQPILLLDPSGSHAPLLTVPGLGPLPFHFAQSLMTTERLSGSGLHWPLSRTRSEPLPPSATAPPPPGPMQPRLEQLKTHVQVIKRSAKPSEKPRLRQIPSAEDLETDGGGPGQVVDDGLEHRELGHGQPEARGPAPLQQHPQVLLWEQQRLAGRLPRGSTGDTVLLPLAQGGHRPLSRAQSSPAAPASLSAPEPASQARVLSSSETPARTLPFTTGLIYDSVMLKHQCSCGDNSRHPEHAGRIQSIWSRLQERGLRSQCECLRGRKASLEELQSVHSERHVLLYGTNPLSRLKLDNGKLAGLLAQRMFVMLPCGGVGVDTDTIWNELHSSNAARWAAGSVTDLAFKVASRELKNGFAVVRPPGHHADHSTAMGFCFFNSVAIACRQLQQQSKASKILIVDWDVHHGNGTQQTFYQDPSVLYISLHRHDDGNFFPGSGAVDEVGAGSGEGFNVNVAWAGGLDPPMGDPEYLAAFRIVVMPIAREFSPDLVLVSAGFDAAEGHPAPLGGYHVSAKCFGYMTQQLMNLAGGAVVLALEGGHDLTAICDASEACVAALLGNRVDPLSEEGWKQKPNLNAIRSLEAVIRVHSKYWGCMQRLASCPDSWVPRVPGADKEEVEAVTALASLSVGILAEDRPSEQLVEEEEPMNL
- assayProcedure: In vitro HDAC enzyme inhibition assay, HDAC7
- runParameters: recombinant full-length HDAC7, substrate MAZ1675 22 μM
pIC50: −log10 of the molar value.
valueType: pIC50

O=C(NO)c1ccc(Cn2nnc3cc(Cl)ccc32)cc1: 6.38
O=C(NO)c1ccc(Cn2cnc3cc(F)ccc32)cc1: 6.49
O=C(NO)c1ccc(Cn2nnc3cc(F)ccc32)cc1: 6.26
O=C(NO)c1ccc(Cn2c(=O)[nH]c3ccccc32)cc1: 6.35

I = O=C(NO)c1ccc(Cn2c(C(F)(F)F)nc3cc(F)ccc32)cc1
II = O=C(NO)c1ccc(Cn2c(=O)[nH]c3cc(Cl)ccc32)cc1
# input // pick larger pIC50 from pair: I vs II Identify your selection by its label.
# output II
(II: 7.10, I: 6.56)
